# credit: patent US20240217968A1

Hi there, I'd appreciate the recorded IC50 for every entry that follows.
Biological target: recombinant human Flag-tagged PARP7 (amino acids 456-657) (Homo sapiens, UniProt Q7Z3E1)
Construct: recombinant human Flag-tagged PARP7 (amino acids 456-657)
Sequence (Q7Z3E1 456-657): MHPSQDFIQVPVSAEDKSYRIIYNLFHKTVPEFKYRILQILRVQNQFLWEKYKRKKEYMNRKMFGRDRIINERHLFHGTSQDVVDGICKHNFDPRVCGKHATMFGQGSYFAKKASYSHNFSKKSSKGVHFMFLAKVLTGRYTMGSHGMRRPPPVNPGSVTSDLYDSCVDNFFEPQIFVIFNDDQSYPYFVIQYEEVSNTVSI
Experiment: PARP7 biochemical DELFIA assay (auto-MARylation)
Details: DELFIA readout, IC50 class

Below: 3 compounds and their reported IC50.
# compound, IC50
measured = [
    ("O=C(CCOCCn1cnc2c(=O)[nH]ncc21)N1CCN(c2ncc(C(F)(F)F)cn2)CC1", "100 to 1000 nM"),
    ("CC(OCCCC(=O)N1CCN(c2ncc(C(F)(F)F)cn2)CC1)c1cccc2c(=O)[nH]ncc12 (stereo not shown) [Compound 123]", "≤ 100 nM"),
    ("CC1CN(c2ncc(C(F)(F)F)cn2)CCN1C(=O)CCOCCn1ncc2c(=O)[nH]ncc21 (stereo not shown) [Compound 143]", "≤ 100 nM"),
]

Required: IC50, one value per compound below.
1. O=C(CCOCCn1nc(C(F)(F)F)c2c(=O)[nH]ncc21)N1CCN(c2nnc(C(F)(F)F)o2)CC1
2. [2H]C(C)(COCCC(=O)N1CCN(c2ncc(C(F)(F)F)cn2)CC1)n1cc(C(F)(F)F)c2c(=O)[nH]ncc21 (single isomer, unassigned) [Compound 477]
3. CC(COCCC(=O)N1CCN(c2ncc(C(F)(F)F)cn2)CC1)c1cc(Cl)cc2c(=O)[nH]ncc12 (stereo not shown) [Compound 162]
4. CC(COCCC(=O)N1CCN(c2ncc(Cl)cn2)CC1)n1nc(C(F)(F)F)c2c(=O)[nH]ncc21 (single isomer, unassigned) [Compound 185]
5. CC(COCCC(=O)N1CCN(c2ncc(C(F)(F)F)s2)CC1)n1nc(C(F)(F)F)c2c(=O)[nH]ncc21 (stereo not shown) [Compound 259]
6. N#Cc1ccc(N2CCN(C(=O)CCOCCc3cc(Cl)cc4c(=O)[nH]ncc34)CC2)nc1

["≤ 100 nM", "≤ 100 nM", "100 to 1000 nM", "≤ 100 nM", "≤ 100 nM", "≤ 100 nM"]

Required: IC50, one value per compound below.
1. CC(COCCC(=O)N1CCN(c2ncc(C(F)(F)F)cn2)CC1)c1cccc2c(=O)[nH]ncc12 (single isomer, unassigned) [Compound 73]
2. O=C1NCCn2c(CCOCCC(=O)N3CCN(c4ncc(C(F)(F)F)cn4)CC3)ccc21
3. COc1ccc(N2CCN(C(=O)CCOCC(C)n3nc(C(F)(F)F)c4c(=O)[nH]ncc43)CC2)nc1 (stereo not shown) [Compound 307]
4. CC(COCCC(=O)N1CCN(c2ncc(C(F)(F)F)cn2)CC1)n1nc(C(F)(F)F)c2c(=O)[nH]ncc21 (single isomer, unassigned) [Compound 177]
5. N#Cc1ccc(N2CCN(C(=O)c3cccc(Cn4ncc5c(=O)[nH]ncc54)c3)CC2)nc1
6. CC(C)c1nn(CCOCCC(=O)N2CCN(c3ncc(C(F)(F)F)cn3)CC2)c2cn[nH]c(=O)c12
7. CC(COCCC(=O)N1CCN(c2cc(C(F)(F)F)ccn2)CC1)n1nc(C(F)(F)F)c2c(=O)[nH]ncc21 (stereo not shown) [Compound 352]

1: ≤ 100 nM; 2: 100 to 1000 nM; 3: ≤ 100 nM; 4: ≤ 100 nM; 5: 100 to 1000 nM; 6: ≤ 100 nM; 7: ≤ 100 nM

Required: IC50, one value per compound below.
1. CC1(C)CN(C(=O)CCOCCn2cc(C(F)(F)F)c3c(=O)[nH]ncc32)CCN1c1ncc(C(F)(F)F)cn1
2. Cc1nn(C(C)COCCC(=O)N2CCN(c3ccc(C#N)cn3)CC2)c2cn[nH]c(=O)c12 (stereo not shown) [Compound 244]
3. CC(COCCC(=O)N1CCN(c2ncccc2C#N)CC1)n1nc(C(F)(F)F)c2c(=O)[nH]ncc21 (single isomer, unassigned) [Compound 405]
4. N#Cc1ccc(N2CCN(C(=O)CCOCCc3cc(F)cc4c(=O)[nH]ncc34)CC2)nc1

["≤ 100 nM", "≤ 100 nM", "100 to 1000 nM", "≤ 100 nM"]

Required: IC50, one value per compound below.
1. CC1(C)CN(c2ncc(C(F)(F)F)cn2)CCN1C(=O)CCOCCn1cc(C(F)(F)F)c2c(=O)[nH]ncc21
2. CC(COCCC(=O)N1CCN(c2nc(C#N)cs2)CC1)n1nc(C(F)(F)F)c2c(=O)[nH]ncc21 (stereo not shown) [Compound 251]
3. O=C(CCOCCn1nc(C(F)(F)F)c2c(=O)[nH]ncc21)N1CCN(c2ncc(C3CC3)cn2)CC1
4. CC(COCC(=O)N(C)C1CCN(c2ncc(C(F)(F)F)cn2)CC1)n1cc(C(F)(F)F)c2c(=O)[nH]ncc21 (stereo not shown) [Compound 463]

≤ 100 nM
≤ 100 nM
≤ 100 nM
≤ 100 nM

----------
Hi there, I'd appreciate the recorded pIC50 for every entry that follows.
Biological target: recombinant human Flag-tagged PARP7 (amino acids 456-657) (Homo sapiens, UniProt Q7Z3E1)
Construct: recombinant human Flag-tagged PARP7 (amino acids 456-657)
Assay: PARP7 biochemical DELFIA assay (auto-MARylation)
Conditions: DELFIA readout, IC50 class
pIC50: −log10 of the molar value.

# compound, measuredOn, pIC50
records = [
    ("CC(COCCC(=O)N1CCN(c2ncc(C#N)s2)CC1)n1nc(C(F)(F)F)c2c(=O)[nH]ncc21 (stereo not drawn) [Compound 283]", "recombinant human Flag-tagged PARP7 (amino acids 456-657) (Homo sapiens, UniProt Q7Z3E1)", "≥ 7.00"),
    ("CC(OCCCC(=O)N1CCN(c2ncc(C(F)(F)F)cn2)CC1)c1cc(F)cc2c(=O)[nH]ncc12 (single isomer, unassigned) [Compound 130]", "recombinant human Flag-tagged PARP7 (amino acids 456-657) (Homo sapiens, UniProt Q7Z3E1)", "≥ 7.00"),
    ("CC(COCCC(=O)N1CCN(c2ncccc2F)CC1)n1nc(C(F)(F)F)c2c(=O)[nH]ncc21 (stereo not drawn) [Compound 369]", "recombinant human Flag-tagged PARP7 (amino acids 456-657) (Homo sapiens, UniProt Q7Z3E1)", "≥ 7.00"),
    ("CC(COCCC(=O)N1CCN(c2ncc(C(F)(F)F)cn2)CC1)n1cc(C(F)(F)F)c2c(=O)[nH]ncc21 (single isomer, unassigned) [Compound 224]", "recombinant human Flag-tagged PARP7 (amino acids 456-657) (Homo sapiens, UniProt Q7Z3E1)", "≥ 7.00"),
    ("N#Cc1ccc(N2CCN(C(=O)c3cccc(Nc4cccc5c(=O)[nH]ncc45)c3)CC2)nc1", "recombinant human Flag-tagged PARP7 (amino acids 456-657) (Homo sapiens, UniProt Q7Z3E1)", "≥ 7.00"),
]

Now consider the entry below.
# lookup: pIC50 of CC(COCCC(=O)N1CCN(c2nnc(C(F)(F)F)s2)CC1)n1nc(C(F)(F)F)c2c(=O)[nH]ncc21 (single isomer, unassigned) [Compound 291]
6.00 to 7.00

----------
Hi there, I'd appreciate the recorded IC50 for every entry that follows.
Target: recombinant human Flag-tagged PARP7 (amino acids 456-657) (Homo sapiens, UniProt Q7Z3E1)
Construct: recombinant human Flag-tagged PARP7 (amino acids 456-657)
Assay: PARP7 biochemical DELFIA assay (auto-MARylation)
Conditions: DELFIA readout, IC50 class

Below: 5 compounds and their reported IC50.
# compound, quantityMeasured, observedMeasurement
measured = [
    ("O=C(COCCc1cccc2c(=O)[nH]ncc12)NC1CCN(c2ncc(C(F)(F)F)cn2)CC1 [Compound 107]", "IC50", "≤ 100 nM"),
    ("CC(C)(COCC(=O)N1CCN(c2ncc(C(F)(F)F)cn2)CC1)Oc1cccc2c(=O)[nH]ncc12 [Compound 34]", "IC50", "1000 to 10000 nM"),
    ("Cc1nn(CCOCCC(=O)N2CCN(c3ncc(C(F)(F)F)cn3)CC2)c2[nH]c(=O)[nH]c(=O)c12 [Compound 402]", "IC50", "≤ 100 nM"),
    ("COCc1cc2c(=O)[nH]ncc2n1CCOCCC(=O)N1CCN(c2ncc(C(F)(F)F)cn2)CC1 [Compound 135]", "IC50", "100 to 1000 nM"),
    ("CC(COCCn1ncc2c(=O)[nH]ncc21)C(=O)N1CCN(c2ncc(C(F)(F)F)cn2)CC1 (stereo not shown) [Compound 155]", "IC50", "≤ 100 nM"),
]

Required: IC50, one value per compound below.
1. CC(COCCC(=O)N1CCN(c2ncc(C(C)(C)C)cn2)CC1)n1cc(C(F)(F)F)c2c(=O)[nH]ncc21 (single isomer, unassigned) [Compound 498]
2. O=C(CCOCCc1cncc2c(=O)[nH]ncc12)N1CCN(c2ncc(C(F)(F)F)cn2)CC1 [Compound 231]

["≤ 100 nM", "≤ 100 nM"]
